From: paper PMC12136057

Kindly state Kd for each of the entries shown.
Biological target: DppA (Escherichia coli, UniProt P23847)
Sequence (P23847 29-535): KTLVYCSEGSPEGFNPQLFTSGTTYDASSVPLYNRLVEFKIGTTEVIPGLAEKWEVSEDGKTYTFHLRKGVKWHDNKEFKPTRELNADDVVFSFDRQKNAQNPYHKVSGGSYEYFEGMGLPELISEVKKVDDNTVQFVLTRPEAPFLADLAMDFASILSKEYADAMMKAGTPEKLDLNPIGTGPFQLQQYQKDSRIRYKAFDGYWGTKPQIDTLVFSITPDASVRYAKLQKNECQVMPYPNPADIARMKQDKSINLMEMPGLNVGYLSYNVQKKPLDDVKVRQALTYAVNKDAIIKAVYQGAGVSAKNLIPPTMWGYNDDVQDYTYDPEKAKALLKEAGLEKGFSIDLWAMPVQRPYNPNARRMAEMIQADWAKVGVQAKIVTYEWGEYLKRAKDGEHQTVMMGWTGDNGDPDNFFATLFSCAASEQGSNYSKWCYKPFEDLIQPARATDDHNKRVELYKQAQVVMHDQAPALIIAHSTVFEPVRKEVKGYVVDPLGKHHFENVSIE
Peptide text beside a SMILES is read from it.

Measured Kd, C[C@H](N)C(=O)N[C@@H](C)C(=O)O [AA, Ala-Ala] (H-Ala-Ala-OH) : ~13.9 nM

Measured Kd, CC(C)C[C@H](NC(=O)CN)C(=O)O [GL, Gly-Leu] : ~2200 nM
